Data credit: ChEMBL document CHEMBL5523718

Biological target: ATP-dependent translocase ABCB1 (Homo sapiens)
Sequence (P08183 whole entry): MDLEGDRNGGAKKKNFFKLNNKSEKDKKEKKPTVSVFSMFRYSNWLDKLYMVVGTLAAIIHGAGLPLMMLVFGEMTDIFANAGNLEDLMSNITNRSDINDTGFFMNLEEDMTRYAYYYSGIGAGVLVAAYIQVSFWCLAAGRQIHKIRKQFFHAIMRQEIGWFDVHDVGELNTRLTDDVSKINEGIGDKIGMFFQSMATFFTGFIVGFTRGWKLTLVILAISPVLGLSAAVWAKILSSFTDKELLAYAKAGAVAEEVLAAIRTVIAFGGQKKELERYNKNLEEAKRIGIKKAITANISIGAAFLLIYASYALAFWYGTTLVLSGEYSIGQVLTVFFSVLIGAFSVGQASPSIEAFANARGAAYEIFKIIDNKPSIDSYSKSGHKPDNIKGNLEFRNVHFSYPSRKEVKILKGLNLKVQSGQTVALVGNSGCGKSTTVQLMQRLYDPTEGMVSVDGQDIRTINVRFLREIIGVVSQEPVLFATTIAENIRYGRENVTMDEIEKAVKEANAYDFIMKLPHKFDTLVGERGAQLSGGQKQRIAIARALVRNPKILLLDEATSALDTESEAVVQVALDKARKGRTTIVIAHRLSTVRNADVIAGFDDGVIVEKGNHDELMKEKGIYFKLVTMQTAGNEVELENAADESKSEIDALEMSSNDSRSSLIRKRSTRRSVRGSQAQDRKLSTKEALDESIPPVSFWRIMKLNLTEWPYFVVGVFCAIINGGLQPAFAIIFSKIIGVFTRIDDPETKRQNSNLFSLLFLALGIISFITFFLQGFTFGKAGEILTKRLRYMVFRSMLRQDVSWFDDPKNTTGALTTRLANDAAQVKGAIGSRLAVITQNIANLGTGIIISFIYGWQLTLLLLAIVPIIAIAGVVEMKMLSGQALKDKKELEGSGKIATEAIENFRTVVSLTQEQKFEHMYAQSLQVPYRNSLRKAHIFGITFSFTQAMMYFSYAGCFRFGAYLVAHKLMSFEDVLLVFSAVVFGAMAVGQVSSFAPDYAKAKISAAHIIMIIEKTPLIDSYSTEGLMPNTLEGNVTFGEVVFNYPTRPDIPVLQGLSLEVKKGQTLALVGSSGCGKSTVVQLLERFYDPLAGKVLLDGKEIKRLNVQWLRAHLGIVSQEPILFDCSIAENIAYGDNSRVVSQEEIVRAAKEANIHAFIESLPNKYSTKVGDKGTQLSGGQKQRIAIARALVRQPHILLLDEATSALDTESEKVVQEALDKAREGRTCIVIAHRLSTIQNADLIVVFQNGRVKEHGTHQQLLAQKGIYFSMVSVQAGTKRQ
Assay: Inhibition of P-gp in human MES-SA/Dx5 cells
pEC50: −log10 of the molar value.
Reported Property: pEC50

Reference set (4 entries):
Record Smiles	Reported Value
COc1cc(NC(=O)c2cnc3ccccc3c2)c(C(=O)Nc2ccc(N3CCN(Cc4ccc5c(c4)OCO5)CC3)cc2)cc1OC	7.66
COc1cc(NC(=O)c2cc(=O)c3ccccc3o2)c(C(=O)Nc2ccc(N3CCN(Cc4ccc5c(c4)OCO5)CC3)cc2)cc1OC	7.51
COc1cc(NC(=O)c2cnc3ccccc3c2)c(C(=O)Nc2ccc(C3CCN(Cc4ccc5c(cnn5C)c4)CC3)cc2)cc1OC	7.59
COc1cc2c(cc1OC)CN(CCc1ccc(NC(=O)c3cc(OC)c(OC)cc3NC(=O)c3cnc4ccccc4c3)cc1)CC2	7.46

P: COc1ccc(CN2CCC(c3ccc(NC(=O)c4cc(OC)c(OC)cc4NC(=O)c4cc(=O)c5ccccc5o4)cc3)CC2)cc1OC
Q: COc1cc(NC(=O)c2cc(=O)c3ccccc3o2)c(C(=O)Nc2ccc(C3CCN(Cc4cccc(-n5cncn5)c4)CC3)cc2)cc1OC
R: COc1cc(NC(=O)c2cc(=O)c3ccccc3o2)c(C(=O)Nc2ccc(N3CCN(Cc4cccc(-c5ccncc5)c4)CC3)cc2)cc1OC
// query Arrange the 3 entries by pEC50 so the values rise. To answer, arrange all of the labels according to the requested order.
// result Q, R, P
(Q: 6.66, R: 6.92, P: 7.40)
